- Measured Target: T1, HNRNPH1 qRRM1-2 (UniProt P31943 11-188)
- T1 sequence: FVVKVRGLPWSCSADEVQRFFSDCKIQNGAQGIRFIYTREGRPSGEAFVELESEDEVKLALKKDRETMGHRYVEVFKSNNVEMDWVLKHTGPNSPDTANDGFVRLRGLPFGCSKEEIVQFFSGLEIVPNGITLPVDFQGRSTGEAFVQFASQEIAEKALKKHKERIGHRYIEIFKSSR
- Protocol: BLI; 150 mM KCl; BLI: 10 mM Tris-HCl pH 7.4, 150 mM KCl, 0.005% P-20, 1 mM EDTA; EMSA: 10 mM Tris-HCl pH 7.4, 1 mM EDTA, 150 mM KCl, room temp, 3 nM RNA; FRET: same Tris/EDTA with 25 mM KCl, room temp
- Condition Details: protein: recombinant; label: 5'-biotin; parallel two-tier G4, intramolecular
Experimental Readout: Kd (nM)
Give your result in nM as a bare value.

For the binder ACCGGGGCAGGGGAAGAGGGGGAUU (structured_RNA) [rG1] , give its measured Kd value. 6

For the binder GGGCGGGGAGGAGGACGCGGUGGAAUGGG (structured_RNA) [rG3] , give its measured Kd value. 4

Sourced from paper doi:10.1101/2022.04.18.488656
